# System: Candida albicans
# condition_description: 20 µM
# Description: Antifungal activity against Candida albicans ATCC 90028 (CO-ADD:FG_001); MIC in YNB media using NBS plates, by OD630
Results with a measured potency or affinity are listed apart.
measured_parameter: Inhibition (%)

> print(dat)
                                    compound  measured.parameter  unit.of.measure  value
 1          CCn1c2ccccc2c2c3ncc4cccn4c3ccc21          Inhibition                %   32.4
 2                 c1ccc(Sc2ncnc3ccccc23)cc1          Inhibition                %   2.99
 3                    COc1ccc2c(C)cc(C)nc2n1          Inhibition                %   3.88
 4  O=C(O)c1nn(-c2ccccc2-c2nnc(O)nc2O)c(=O)[nH]c1=O          Inhibition                %    1.7
 5  CCc1nc(N)nc(N)c1-c1ccc(N(C)Cc2ccccc2)c([N+](=O)[O-])c1          Inhibition                %   0.08
 6  Cn1c(=O)c2nc(CNc3ccc(C(=O)O)cc3)[nH]c2n(C)c1=O          Inhibition                %   2.41
 7                  c1ccc(-c2cn3ccccc3n2)cc1          Inhibition                %  -0.09
 8            Cc1nc(N)nc(Nc2ccc(C#N)cc2)c1Br          Inhibition                %   0.12
 9  Cc1cc(=O)n2nc(-c3ccc(C(C)(C)C)cc3)cc2[nH]1          Inhibition                %   4.49
10              O=C(O)c1ccc(OCCOc2ccccc2)cc1          Inhibition                %   7.45
11               [O-][n+]1nc2ccccc2c2ccccc21          Inhibition                %   6.35
12  Cc1cc(-c2ccc(N3C(=O)CC4(CCCC4)C3=O)c(C)c2)ccc1N1C(=O)CC2(CCCC2)C1=O          Inhibition                %   4.32
13  CCOC(=O)c1csc(-c2ccc(COC(=O)c3ccccc3)o2)n1          Inhibition                %   4.97
14                       NCc1c(O)ccc2ccccc12          Inhibition                %   3.27
15                 Cc1cccnc1N=C(S)Nc1ncccc1C          Inhibition                %   3.55
16         O=[N+]([O-])c1cc(-c2cccnc2)[nH]n1          Inhibition                %   1.12
17             CC(=O)OCCN1c2ccccc2Sc2cnccc21          Inhibition                %   1.65
18  CN1CCC(=C2c3ccccc3C(O)c3ccccc32)CC1 (stereo unspecified)          Inhibition                %   0.03
19  O=C(O)CCC1(c2ccccc2)NC(=O)NC1=O (stereo unspecified)          Inhibition                %  -1.18
20                  O=C1OCC/C1=C\c1ccc(O)cc1          Inhibition                %   3.18
21           CCN1CCC(Nc2ccnc3cc(Cl)ccc23)CC1          Inhibition                %   2.51
22             COc1ccc(-c2cc3ccccc3[nH]2)cc1          Inhibition                %  -0.93
23  CC(=O)Nc1nc(C)c(CCCOc2ccc([N+](=O)[O-])cc2)c(O)n1          Inhibition                %   3.22
24    Cn1c(=O)c2nc(SCc3ccccn3)[nH]c2n(C)c1=S          Inhibition                %   0.94
25                       COc1cc(CCC(=O)O)on1          Inhibition                %  -0.47
26  O=C(c1ccccc1)C1N=NCC1c1ccc(Cl)cc1 (stereo unspecified)          Inhibition                %   8.01

====

# Test system: Staphylococcus aureus
# procedure_details: Antibacterial activity against Staphylococcus aureus MRSA ATCC 43300 (CO-ADD:GP_020); MIC in CAMBH media using NBS plates, by Resazurin F(560/590)
# Type: functional
# condition_description: Concentration 20 uM, ASSAY_TEST Inhibition of Bacterial Growth, detection method Resazurin, Fluorescence (ex560/em590), MEDIA CAMHB, plate type 384well, CORNING #3640, time 18 hr
measured_parameter: Inhibition (%)

> print(dat)
                                    molecule  measured.parameter  value
 1  Nc1ccn(C2OC(CCl)C(O)C2O)c(=O)n1 (configuration not stated)          Inhibition  16.82
 2  O=C(OCC1CCC=CO1)C1CCC=CO1 (configuration not stated)          Inhibition   6.99
 3                 NNC(=O)CNC(=O)Nc1nnc(S)s1          Inhibition   1.09
 4                     N#Cc1ncc(Cl)c2ccccc12          Inhibition  -8.29
 5  COc1cc(O)c(C(=O)/C=C/c2ccccc2)c(OC)c1 [FLAVOKAWAIN B]          Inhibition   9.23
 6  COc1ccc(OC)c(NC(=O)c2cc3oc4ccccc4c3cc2O)c1          Inhibition  13.76
 7  CC(=O)OCCn1c([N+](=O)[O-])cnc1/C=[N+](\[O-])C1CCCCC1          Inhibition  22.69
 8            O=C(O)c1nc2nc(Cl)c(Cl)nc2[nH]1          Inhibition  -9.71
 9  c1ccc(-c2nc(-c3nccc4ccccc34)oc2-c2ccccc2)cc1          Inhibition  -13.7
10          S=C1SCN(CCc2ccccc2)CN1CCc1ccccc1          Inhibition  -3.89
11      O=C1OCC/C1=C\NCCCCCCCCN/C=C1\CCOC1=O          Inhibition  -2.67
12  CCCCCOc1ccc(N2C(=O)C(C)CNC2=S)cc1 (configuration not stated)          Inhibition  15.96

====

# System: Escherichia coli
# procedure_details: Antibacterial activity against Escherichia coli ATCC 25922 (CO-ADD:GN_001); MIC in CAMBH media using NBS plates, by Resazurin F(560/590)
# Format: functional
# condition_description: Concentration 20 uM, ASSAY_TEST Inhibition of Bacterial Growth, detection method Resazurin, Fluorescence (ex560/em590), MEDIA CAMHB, plate type 384well, CORNING #3640, time 18 hr
measured_parameter: Inhibition (%)

> print(dat)
                                    molecule   value
 1  O=c1cc2oc3cc(O)c(O)cc3c(-c3ccccc3O)c-2cc1O   15.45
 2                       CN1CCN(C2=NCCO2)CC1   15.25
 3     Nc1cnc(Nc2ccc(Br)cc2)nc1N.O=S(=O)(O)O  -16.03
 4      CCCOc1ccc(-c2nc(-c3ccc(N)cc3)cs2)cc1    2.89
 5             O=C(O)c1cc2ccccc2cc1Nc1ccccc1  -16.93
 6  CCC1(C(=O)OC)CCc2c(cc(OC)c3ccccc23)C1=O (stereo not drawn)    8.82
 7  COCC(=O)OC1CCn2c1nc1c2C(=O)C(C)=C(NC(C)=O)C1=O (stereo not drawn)   -2.53
 8         COc1ccccc1NC(=O)Nc1cc(C(C)C)ccc1C   -1.81
 9                      OCc1ncc(-c2ccccc2)s1     3.7
10      CC(=O)Nc1ccc2cc3ccc(NC(C)=O)cc3nc2c1    0.73
11            Cc1nc2ccc(Cl)cn2c1[N+](=O)[O-]   -8.75
12                Oc1nc2[nH]c(Cl)nc(Cl)c-2n1   13.78
13               CCCCCC(=O)C(=O)c1ccc(O)cc1O    -2.2

====

# System: Cryptococcus neoformans
# condition_description: Concentration 20 uM; ASSAY_TEST Inhibition of Fungal Growth; detection method Resazurin; Absorption (OD600-OD570); plate type 384well; NBS; CORNING #3640
# Description: Antifungal activity against Cryptococcus neoformans H99 ATCC 208821 (CO-ADD:FG_002); MIC in YNB media using NBS plates, by Resazurin OD(600-570)
Measured potencies and affinities stand elsewhere.
Inhibition by entry:
measured_parameter: Inhibition (%)

> print(dat)
                                    molecule   value
 1  N=C1OC(c2ccccc2)C(O)=C1O (stereo unspecified)   -2.61
 2          Cc1cc2c(cc1C)N(C(=O)CCl)CC(=O)N2   -7.55
 3  Cc1cc(O)c(C(C)C)cc1NC(=O)Nc1cccc2ccccc12   -2.63
 4  Nc1nc(N)c(/C=N/c2ccc(Br)cc2)c(Nc2ccc(Br)cc2)n1    1.82
 5        CCCCNCC1CCCO1 (stereo unspecified)   -3.66
 6  CSC1=NC=C(C#N)C2=NC(c3ccc(Cl)cc3)NN12 (stereo unspecified)    39.9
 7              O=C1Cc2cccc(O)c(=O)c2C(=O)O1   -4.33
 8                   Cc1nc(C(N)=O)nc2ccccc12    1.62
 9                    S=C(Nc1ccccc1)Nc1nccs1    1.13
10    O=C1CSC(=S)N1/N=C/c1c[nH]c2ccc(Br)cc12  -14.16
11     CC(C)(C)N1CCC1CN (stereo unspecified)   -5.34
12  O=C(O)CCC(=O)OCCN(Cc1ccc(Oc2ccc([N+](=O)[O-])cc2)cc1)C(=O)C(Cl)Cl   -1.27
13          CCn1c2ccccc2c2c3ncc4cccn4c3ccc21   -7.68
14        O=C(O)c1cc2cc(OCc3ccccc3)ccc2[nH]1   -8.34
15   N#Cc1cc(-c2ccccc2)[nH]c1-c1nccc2ccccc12   -6.55
16        CSC(=N)NS(=O)(=O)c1ccc(NC(C)=O)cc1   -9.44
17  Cc1cc(NC(=O)NC(=O)c2ccccc2NC(=O)C(C)N)ccc1Oc1ncc(Br)cn1.Cl (stereo unspecified)   -7.47
18       CCOC(=O)CSc1nc2nc(Cl)c(Cl)[nH]c-2n1     3.6
19          Cc1c(O)cnc2nn(-c3ccccc3)c(=N)n12   -5.13
20            CCOc1ccc(/C=C2\NC(=S)NC2=O)cc1   -6.77
21             CSc1cccc(NC(=O)N2CCN(C)CC2)c1  -18.46
22           Oc1ccccc1/N=C/c1c(O)ccc2ccccc12   25.14
23  CCN(CC)Cc1cc2[nH]c3c4ccc(Cl)cc4ncc3c2cc1OC   -5.75
24                   COc1cccc(-c2nnc(N)o2)c1   -2.41
25  CC1=C2C3OC(=O)C(C)C3CCC2(C)C=C(Cl)C1=O (stereo unspecified)   -2.81
26                  Oc1ccc(/C=C\c2cnccn2)cc1  -11.21
